system: MFM-223; experiment: normalised response (% of control), CellTiter-Glo; higher = more viable cells (100 = DMSO, 0 = benzethonium chloride kill control); settings: incubation time: 72 h
MEASURED METRIC: normalised response

- O=NN(CCCl)C(=O)NCCCl [Carmustine] (10000 nM): 94.4%
- Oc1ncnc2[nH]ncc12 [Allopurinol] (10000 nM): 103%
- CC1(C)CNc2cc(NC(=O)c3cccnc3NCc3ccncc3)ccc21 [Motesanib] (10000 nM): 88.1%

###

tested on: SK-BR-3; assay: normalised viability (% of control), CellTiter-Blue; higher = more viable cells (about 100 = DMSO control); details: 10000 nM; incubation time: 72 h
MEASURED METRIC: normalised viability (%)

* CC(=O)c1c(C)c2cnc(Nc3ccc(N4CCNCC4)cn3)nc2n(C2CCCC2)c1=O | 63.5
* Cc1sc2c(c1C)C(c1ccc(Cl)cc1)=N[C@@H](CC(=O)OC(C)(C)C)c1nnc(C)n1-2 [(+)JQ1] | 51.8
* COc1cc2c(cc1O)CC[C@@H]1[C@@H]2CC[C@]2(C)[C@@H](O)CC[C@@H]12 [2-methoxyestradiol] | 20.2

###

system: MDA-MB-231; test: normalised response (% of control), CellTiter-Glo; higher = more viable cells (100 = DMSO, 0 = benzethonium chloride kill control); conditions: incubation time: 72 h
Recorded normalised response for the following molecules
MEASURED METRIC: normalised response

- CC1(C)CNc2cc(NC(=O)c3cccnc3NCc3ccncc3)ccc21 [Motesanib] (10 nM): 91.2%
- CC[C@@H]1C(=O)OC[C@@H]1Cc1cncn1C [Pilocarpine] (4 nM): 96.1%
- CC1(C)CNc2cc(NC(=O)c3cccnc3NCc3ccncc3)ccc21 [Motesanib] (1000 nM): 89.1%
- CC(=O)c1c(C)c2cnc(Nc3ccc(N4CCNCC4)cn3)nc2n(C2CCCC2)c1=O [Palbociclib] (1000 nM): 84%
- Oc1ncnc2[nH]ncc12 [Allopurinol] (1000 nM): 103%
- Cn1cc(C2=Nc3cc(NC(=O)C(N)C4CCCCC4)cc4c3C2=CNNC4=O)cn1 (configuration not stated) (1 nM): 95%
- Cc1ccc([N+](=O)[O-])cc1S(=O)(=O)N(C)/N=C/c1cnc2ccc(Br)cn12 [PIK-75] (1000 nM): 1.8%

###

test system: CAL-85-1; experiment: normalised viability (% of control), CellTiter-Blue; higher = more viable cells (about 100 = DMSO control); settings: 30 nM; incubation time: 72 h
Recorded normalised viability for the following compounds
MEASURED METRIC: normalised viability (%)

• Nc1nc2[nH]cnc2c(=S)[nH]1 = 97.4
• Cc1sc2c(c1C)C(c1ccc(Cl)cc1)=N[C@@H](CC(=O)OC(C)(C)C)c1nnc(C)n1-2 [(+)JQ1] = 82.6
• O=P(O)(O)C(O)(Cn1ccnc1)P(=O)(O)O = 83.2
• COc1cc2c(cc1O)CC[C@@H]1[C@@H]2CC[C@]2(C)[C@@H](O)CC[C@@H]12 = 85.5
• CC1=C2C[C@H]3[C@@H](CC=C4C[C@@H](O)CC[C@@]43C)[C@@H]2CC[C@]12O[C@@H]1C[C@H](C)CN[C@H]1[C@H]2C = 91.9
